- Tested on: Leishmania donovani
- procedureText: Leishmania intramacrophage assay
- Format: functional, organism-based
- Set-up: scale not given: in the data most compounds retested in dose-response had high values
- conditionParameters: 30.3 µM; […]
Among all 69,000 compounds or so, about 1,000 (1.4%) showed an effect of 50% or more. The entries come from a sample that favours strong results as a whole.
Reported Percent Effect by item:
Give your result in % as a bare value.

O=C(CN(Cc1cccc(F)c1)CC1CCCO1)N1CCCC1 (stereo not given)
-8.596

Could you share which Percent Effect value was measured for Cl.O=S(=O)(c1ccc(Cl)cc1)N1CCc2nc(C3CCNCC3)ncc2C1 ?
-22.35

Could you share which Percent Effect value was measured for COCCN(Cc1ccccn1)Cc1sccc1C ?
0.646

Could you share which Percent Effect value was measured for COCCN(CCC#N)S(=O)(=O)c1ccc(F)cc1Cl ?
-7.04

Could you share which Percent Effect value was measured for CSc1ccc(-c2nc(CN3C[C@@H](C)NC[C@@H]3C)c(C)o2)cc1 ?
42.57

Could you share which Percent Effect value was measured for Cc1cc2n(n1)CC(CNC1CCN(Cc3ccncc3)CC1)CN2 (stereo not given) ?
2.182

Could you share which Percent Effect value was measured for O=c1oc(-c2cccs2)nn1CC1(O)CCCCC1 ?
-0.7487

Could you share which Percent Effect value was measured for COCCn1ccnc1CN(Cc1ccccn1)Cc1sccc1C ?
60.02

Could you share which Percent Effect value was measured for O=C(O)C(F)(F)F.O=C1CC[C@H]2[C@H](CCN2c2ncccn2)N1c1ccccc1 ?
50.79

Could you share which Percent Effect value was measured for Cc1cnc(C(=O)N2CC[C@H]3[C@@H]2CCC(=O)N3c2cccnc2)cn1.O=C(O)C(F)(F)F ?
26.72

Could you share which Percent Effect value was measured for COc1nn(C)cc1-c1nnc(SCc2cccnc2)n1C ?
-1.752

Could you share which Percent Effect value was measured for CN(C)C[C@@H]1CN(C2CCN(c3ccc(Cl)cc3)CC2)C[C@@H]1CO ?
93.76

Could you share which Percent Effect value was measured for CSC(C)(C)CNC(=O)NC1CCN(CC2CC2)C1 (stereo not given) ?
2.957

Could you share which Percent Effect value was measured for O=C(O)C(F)(F)F.O=C(c1ccco1)N1CCO[C@@H]2CN(Cc3nccs3)CC[C@@H]2C1 ?
43.58

Could you share which Percent Effect value was measured for Cc1oncc1C(=O)N1CC[C@H]2CO[C@H](CN3CCCC3)[C@H]2C1 ?
5.899

Could you share which Percent Effect value was measured for Cc1ccc(N2CCC(N3C[C@@H](CN(C)C)[C@@H](CO)C3)CC2)cc1 ?
38.77

Could you share which Percent Effect value was measured for O=C(NC1CCN(CC2CCCC2)C1)N1CCC(OCC2CC2)CC1 (stereo not given) ?
32.77

Could you share which Percent Effect value was measured for Cn1cc(C(=O)N[C@H]2CN(Cc3nccs3)[C@@H]3CCCO[C@H]23)cn1.O=C(O)C(F)(F)F ?
15.38

Could you share which Percent Effect value was measured for COc1ccc(CC2CN(C(=O)c3ocnc3C)CCO2)cc1 (stereo not given) ?
-6.657

Could you share which Percent Effect value was measured for CNC(=O)CN(C)C1CCN(c2ccc(Cl)cc2)CC1 ?
24.19

Could you share which Percent Effect value was measured for NC(=O)C1CCN(C(=O)NC2CCN(CC3CCCC3)C2)CC1 (stereo not given) ?
54.02
